- System: Enterobacter cloacae
- TEST PROTOCOL: Inhibition zone assay (agar plate)
- Format: cell-based
- TEST SETTINGS: agar plate, 50 nanomoles/well, 3 mm wells
Residues, ends and D or L forms follow the SMILES beside them.
MEASURED ATTRIBUTE: inhibition zone diameter (number of plus signs)

Respond only with inhibition zone diameter (number of plus signs) recorded for CC[C@H](C)[C@H](NC(=O)[C@H](Cc1ccc(O)cc1)NC(=O)[C@@H](NC(=O)[C@@H]1CCCN1C(=O)[C@H](CCCNC(=N)N)NC(=O)[C@H](CC(N)=O)NC(=O)[C@H](C)N)C(C)C)C(=O)N1CCC[C@H]1C(=O)N1CCC[C@H]1C(=O)N1CCC[C@H]1C(=O)N[C@@H](CCCNC(=N)N)C(=O)N1CCC[C@H]1C(=O)N1CCC[C@H]1C(=O)N[C@@H](Cc1c[nH]cn1)C(=O)N1CCC[C@H]1C(=O)N[C@@H](CCCNC(=N)N)C(=O)N[C@@H](CC(C)C)C(=O)O [Bb+A] (H-ANRPVYIPPPRPPHPRL-OH)
+++ ((+++) 10-14 mm)

Respond only with inhibition zone diameter (number of plus signs) recorded for CC(C)C[C@H](NC(=O)[C@H](CCCNC(=N)N)NC(=O)[C@@H]1CCCN1C(=O)[C@H](Cc1c[nH]cn1)NC(=O)[C@@H]1CCCN1C(=O)[C@@H]1CCCN1C(=O)[C@H](CCCNC(=N)N)NC(=O)[C@@H]1CCCN1C(=O)[C@@H]1CCCN1C(=O)[C@@H](NC(=O)[C@H](CCC(N)=O)NC(=O)[C@H](CCC(N)=O)NC(=O)[C@@H]1CCCN1C(=O)[C@H](CCCNC(=N)N)NC(=O)[C@@H]1CCCN1C(=O)[C@H](CCCCN)NC(=O)[C@H](CC(N)=O)NC(=O)[C@@H](N)CO)C(C)C)C(=O)O [Yj +S] (H-SNKPRPQQVPPRPPHPRL-OH)
++ ((++) 7-9 mm)

Respond only with inhibition zone diameter (number of plus signs) recorded for CC[C@H](C)[C@H](NC(=O)[C@@H]1CCCN1C(=O)[C@H](C)NC(=O)[C@@H]1CCCN1C(=O)[C@H](CCCNC(=N)N)NC(=O)[C@@H]1CCCN1C(=O)[C@H](CCCCN)NC(=O)[C@H](CO)NC(=O)[C@@H]1CCCN1C(=O)[C@H](CCCCN)NC(=O)CN)C(=O)N[C@@H](CCCCN)C(=O)N1CCC[C@H]1C(=O)N[C@@H](CCCNC(=N)N)C(=O)N1CCC[C@H]1C(=O)N1CCC[C@H]1C(=O)N[C@@H](Cc1c[nH]cn1)C(=O)N1CCC[C@H]1C(=O)N[C@@H](CCCNC(=N)N)C(=O)N[C@@H](CC(C)C)C(=O)O [Cd 3+] (H-GKPSKPRPAPIKPRPPHPRL-OH)
+++ ((+++) 10-14 mm)

Respond only with inhibition zone diameter (number of plus signs) recorded for CC(C)C[C@H](NC(=O)[C@H](CCCNC(=N)N)NC(=O)[C@@H]1CCCN1C(=O)[C@H](Cc1c[nH]cn1)NC(=O)[C@@H]1CCCN1C(=O)[C@@H]1CCCN1C(=O)[C@H](CCCNC(=N)N)NC(=O)[C@@H]1CCCN1C(=O)[C@@H]1CCCN1C(=O)[C@@H](NC(=O)[C@H](CCC(N)=O)NC(=O)[C@H](CCC(N)=O)NC(=O)[C@@H]1CCCN1C(=O)[C@H](CCCNC(=N)N)NC(=O)[C@@H]1CCCN1C(=O)[C@H](CCCCN)NC(=O)[C@@H](N)CC(N)=O)C(C)C)C(=O)O [Yj -S] (H-NKPRPQQVPPRPPHPRL-OH)
++ ((++) 7-9 mm)
